Each recorded value in this set is attributed to PubChem BioAssay (EPA / NIEHS).

# assay method text: ATG_CRE_CIS: Attagene CIS-FACTORIAL HepG2 Assay for human cAMP Responsive Element (CRE) binding protein 3 (AID 2282926)
# details: HepG2 CRE cis-reporter, Attagene multiplexed mRNA; actives raise or lower the signal
Activity calls are given as the source filed them. The calls were made as follows: active = hit-call score of the fitted dose curve at least 0.9, where 1 is the maximum; inactive = score below 0.9.
Labels: active, inactive

# smi, class label
data = [
    ("Cc1ccc(S(=O)(=O)C(I)I)cc1", "active"),
    ("Cc1cc(O)c(C(C)(C)C)cc1C(C)(C)C", "inactive"),
    ("CCCCCCCCCCCCCCCCC", "inactive"),
    ("CCCCCC/C=C/CCCCCCCC(=O)O", "inactive"),
    ("CCN=C1C=CC(=C(c2ccc(N(CC)CC)cc2)c2ccc(N(CC)CC)cc2)c2ccccc21", "active"),
    ("O=C(O)C(F)(F)C(F)(F)C(F)(F)OC(F)(F)F", "inactive"),
    ("CC(=O)c1ccccc1N", "inactive"),
    ("Brc1ccccn1", "inactive"),
    ("O=C(F)C1(F)C(F)(F)C(F)(F)C(F)(F)C(F)(F)C1(F)F", "inactive"),
    ("NC(=O)C(F)(F)C(F)(F)C(F)(F)F", "inactive"),
    ("C[Si](Cl)(Cl)CCC(F)(F)C(F)(F)C(F)(F)C(F)(F)C(F)(F)C(F)(F)F", "inactive"),
    ("C[C@]12CC[C@H]3C(=CCc4cc(O)ccc43)[C@@H]1CCC2=O", "inactive"),
    ("COc1ccccc1C=O", "inactive"),
]

###

# Read-out: TIMP metallopeptidase inhibitor 2 (TIMP2), TIMP2 (gene 7077)
# assay method text: BSK_KF3CT_TIMP2: BioMAP Diversity Plus: KF3CT Assay for TIMP metallopeptidase inhibitor 2 (TIMP2) Biomarker Activity (AID 2283071)
# details: primary human keratinocytes with fibroblasts; actives raise or lower the signal
Activity calls are given as the source filed them. Rule for the calls: active = hit-call score of the fitted dose curve at least 0.9, where 1 is the maximum; inactive = score below 0.9.
Outcome codes: YES = active, NO = inactive

# compound, class label
measured = [
    ("OCCCCC(F)(F)C(F)(F)C(F)(F)C(F)(F)F", "NO"),
    ("OCC(O)CC(F)(F)C(F)(F)C(F)(F)C(F)(F)F (stereo not given)", "NO"),
    ("O=C1c2c(O)ccc(Nc3ccc(CCO)cc3)c2C(=O)c2c([N+](=O)[O-])ccc(O)c21", "YES"),
    ("O=S(=O)(O)CCC(F)(F)C(F)(F)C(F)(F)C(F)(F)C(F)(F)C(F)(F)C(F)(F)C(F)(F)F", "NO"),
    ("C=CC(=O)OCC(F)(F)C(F)(F)C(F)(F)C(F)(F)C(F)(F)C(F)(F)C(F)(F)C(F)F", "NO"),
]

###

# Read-out: E-selectin (Homo sapiens) (UniProt P16581)
# Sequence (P16581 whole entry, looked up): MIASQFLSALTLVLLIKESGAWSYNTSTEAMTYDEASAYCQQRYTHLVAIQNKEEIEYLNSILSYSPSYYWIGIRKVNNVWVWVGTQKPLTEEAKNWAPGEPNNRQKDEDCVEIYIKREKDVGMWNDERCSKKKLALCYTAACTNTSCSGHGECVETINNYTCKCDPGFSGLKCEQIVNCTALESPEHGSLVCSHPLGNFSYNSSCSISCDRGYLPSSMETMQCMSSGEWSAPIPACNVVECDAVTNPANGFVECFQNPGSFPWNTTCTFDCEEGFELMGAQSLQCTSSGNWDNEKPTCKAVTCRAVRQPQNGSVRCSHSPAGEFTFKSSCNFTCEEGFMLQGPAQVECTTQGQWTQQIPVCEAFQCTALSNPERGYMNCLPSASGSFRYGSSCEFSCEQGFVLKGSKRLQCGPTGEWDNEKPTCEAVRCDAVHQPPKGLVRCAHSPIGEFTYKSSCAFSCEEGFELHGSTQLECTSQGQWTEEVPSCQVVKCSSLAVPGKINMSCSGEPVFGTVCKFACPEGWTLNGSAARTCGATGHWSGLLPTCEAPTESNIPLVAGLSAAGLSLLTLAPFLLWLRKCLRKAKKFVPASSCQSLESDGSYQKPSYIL
# assay method text: BSK_3C_Eselectin: BioMAP Diversity Plus: 3C Assay for Eselectin Biomarker Activity (AID 2283015)
# details: primary human endothelial cells (HUVEC); actives raise or lower the signal
Calls of active or inactive are those of the source. The calls were made as follows: active = hit-call score of the fitted dose curve at least 0.9, where 1 is the maximum; inactive = score below 0.9.
Possible outcomes: Y (active), N (inactive)

# molecule, class label
measured = [
    ("Cc1cnccn1", "N"),
    ("Nc1cc([N+](=O)[O-])cc(Cl)c1O", "N"),
    ("CC1=CC2C3C=CC(C3)C2C1C (stereo not drawn)", "N"),
    ("CCN(CC)c1ccc2c(c1)Oc1cc(N(CC)CC)ccc1C21OC(=O)c2ccccc21", "N"),
    ("CCN(CCO)S(=O)(=O)C(F)(F)C(F)(F)C(F)(F)C(F)(F)C(F)(F)C(F)(F)C(F)(F)C(F)(F)F", "N"),
    ("CO[Si](C)(CCC(F)(F)C(F)(F)C(F)(F)C(F)(F)C(F)(F)C(F)(F)F)OC", "N"),
    ("FC(F)(F)C(F)(F)C(F)(F)C(F)(F)C(F)(F)C(F)(F)CC[Si](Cl)(Cl)Cl", "N"),
    ("O=C(O)C(F)(F)OC(F)(F)C(F)(F)OC(F)(F)C(F)(F)OC(F)(F)F", "N"),
    ("C=CC(=O)OCC(F)(F)C(F)(F)C(F)(F)C(F)(F)C(F)(F)C(F)(F)C(F)(F)C(F)F", "N"),
    ("OCC(O)CC(F)(F)C(F)(F)C(F)(F)C(F)(F)C(F)(F)C(F)(F)C(F)(F)C(F)(F)F (stereo not drawn)", "N"),
    ("OCCCCC(F)(F)C(F)(F)C(F)(F)C(F)(F)F", "N"),
    ("NS(=O)(=O)C(F)(F)C(F)(F)C(F)(F)C(F)(F)C(F)(F)C(F)(F)F", "N"),
    ("O=C1c2c(O)ccc(Nc3ccc(CCO)cc3)c2C(=O)c2c([N+](=O)[O-])ccc(O)c21", "Y"),
    ("CCOC(=O)CC(=O)C(F)(F)C(F)(F)F", "N"),
    ("O=C(O)CCC(F)(F)C(F)(F)C(F)(F)C(F)(F)C(F)(F)C(F)(F)C(F)(F)F", "N"),
    ("O=C(c1ccccc1)c1ccc(O)cc1O", "N"),
    ("FC(F)(F)C(F)(F)C(F)(F)CC1CO1 (stereo not drawn)", "N"),
    ("NC(=O)C(F)(F)C(F)(F)C(F)(F)C(F)F", "N"),
    ("O=C(O)C(F)(F)C(F)(F)C(F)(F)OC(F)(F)F", "N"),
    ("Cc1ccc(O)c(-n2nc3ccccc3n2)c1", "N"),
    ("Cc1ccc(S(=O)(=O)C(I)I)cc1", "Y"),
    ("CN(C(=O)C(F)(F)C(F)(F)C(F)(F)F)[Si](C)(C)C", "N"),
    ("C[Si](Cl)(Cl)CCC(F)(F)C(F)(F)C(F)(F)C(F)(F)C(F)(F)C(F)(F)F", "N"),
]
